# Tested on: 2Sb-muMax20 (muMax20 with two 1,3-bis(methyl)benzene Cys staples, A13C/A17C and Q88C/A92C, C-terminal Lys)
# measurement-protocol: PBM 8-mer E-score (E-score (rank enrichment, -0.5 to 0.5)); higher = stronger preferential binding
Over roughly 33,000 sequences, “E-score (rank enrichment, -0.5 to 0.5)” has its median near -0.0028; the highest 2% begin near 0.23. The full list was thinned out, with the highest values kept by preference.
Recorded PBM 8-mer E-score for the following sequences

Some entries whose results are on file:
Please report the recorded PBM 8-mer E-score for CCCTATTA .
0.0897

So what's the measured PBM 8-mer E-score for this one? AGATAACC
0.0753

Quick one: PBM 8-mer E-score of CGATAACG ?
-0.0616

# query: PBM 8-mer E-score of entry AAATAATA
0.149

So what does the record say about PBM 8-mer E-score for TAGACAAA ?
0.053

So what does the record say about PBM 8-mer E-score for ACGCGGCA ?
-0.15

Continuing:
Need PBM 8-mer E-score of ATATAACC , thanks.
0.16

Entry under review: ATCTGTCA . Reported PBM 8-mer E-score?
0.236

Value lookup for PBM 8-mer E-score; key = AAATAATC
-0.0306

// returns reported PBM 8-mer E-score for input ACACCCAC
0.2

I'd like to know its PBM 8-mer E-score. The sequence in question is ATAGGGTA
0.123

I have this sequence here, AAGAGGGC , and I need its recorded PBM 8-mer E-score.
0.0019

If you can, please state the reported PBM 8-mer E-score value of ACACGAGG .
0.0366

What measured PBM 8-mer E-score goes with ATATAACA ?
0.126

Query: PBM 8-mer E-score; subject: GTAGGGTA
0.266

Would you mind telling me what PBM 8-mer E-score value was observed for CCACCCTC ?
0.234

Consider the sequence shown here: CAAGGGGG What is its recorded PBM 8-mer E-score?
-0.105
